Each recorded value in this set is attributed to patent US20240150377A1.

- STUDY_SYSTEM: F508del (Homo sapiens, UniProt P13569, DEL508-508)
- Construct: expressed in transfected cells
- Sequence (P13569 with tags, fused parts or gaps DEL508-508): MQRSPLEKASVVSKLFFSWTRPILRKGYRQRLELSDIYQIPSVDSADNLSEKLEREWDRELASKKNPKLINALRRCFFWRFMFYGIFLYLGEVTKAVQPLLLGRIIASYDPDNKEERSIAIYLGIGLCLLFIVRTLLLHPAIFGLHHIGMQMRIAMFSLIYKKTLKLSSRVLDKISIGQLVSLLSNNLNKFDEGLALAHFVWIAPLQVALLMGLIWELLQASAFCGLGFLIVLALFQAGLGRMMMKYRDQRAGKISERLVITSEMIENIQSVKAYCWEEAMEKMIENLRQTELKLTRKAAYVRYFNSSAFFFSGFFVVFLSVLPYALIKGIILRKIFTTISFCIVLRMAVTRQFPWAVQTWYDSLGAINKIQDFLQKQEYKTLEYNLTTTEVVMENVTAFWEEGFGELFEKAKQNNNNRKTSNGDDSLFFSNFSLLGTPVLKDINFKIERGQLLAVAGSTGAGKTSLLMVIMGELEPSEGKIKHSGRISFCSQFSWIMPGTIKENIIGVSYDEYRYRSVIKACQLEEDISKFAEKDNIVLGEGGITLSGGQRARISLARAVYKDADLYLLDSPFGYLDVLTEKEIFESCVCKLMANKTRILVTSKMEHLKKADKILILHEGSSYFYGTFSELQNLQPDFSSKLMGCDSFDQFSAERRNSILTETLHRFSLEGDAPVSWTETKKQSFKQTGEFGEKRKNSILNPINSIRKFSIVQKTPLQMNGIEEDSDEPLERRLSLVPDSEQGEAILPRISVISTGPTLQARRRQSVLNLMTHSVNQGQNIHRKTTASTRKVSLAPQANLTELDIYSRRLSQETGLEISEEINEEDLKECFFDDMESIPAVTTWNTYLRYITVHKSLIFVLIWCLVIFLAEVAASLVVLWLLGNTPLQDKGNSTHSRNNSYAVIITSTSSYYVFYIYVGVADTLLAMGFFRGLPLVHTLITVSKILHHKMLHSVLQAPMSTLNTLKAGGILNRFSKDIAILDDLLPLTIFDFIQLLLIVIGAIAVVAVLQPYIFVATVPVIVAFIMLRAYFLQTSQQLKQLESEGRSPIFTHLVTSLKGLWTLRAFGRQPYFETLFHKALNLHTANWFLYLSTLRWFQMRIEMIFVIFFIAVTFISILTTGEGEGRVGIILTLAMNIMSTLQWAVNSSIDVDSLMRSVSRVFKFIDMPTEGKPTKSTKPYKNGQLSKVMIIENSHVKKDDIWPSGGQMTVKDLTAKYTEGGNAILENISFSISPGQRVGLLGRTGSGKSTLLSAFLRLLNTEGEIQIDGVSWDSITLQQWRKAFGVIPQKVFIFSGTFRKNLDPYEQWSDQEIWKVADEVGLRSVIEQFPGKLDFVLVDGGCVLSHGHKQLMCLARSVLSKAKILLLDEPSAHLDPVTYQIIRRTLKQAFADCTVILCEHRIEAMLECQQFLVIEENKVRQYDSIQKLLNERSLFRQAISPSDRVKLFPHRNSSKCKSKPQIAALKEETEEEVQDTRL
- ASSAY_NAME: 3T3 assay: membrane potential optical assay for F508del correction
- Type: cell-based
- ASSAY_CONTEXT: NIH3T3; Table 7; F508del NIH 3T3 cells; compared to lumacaftor in combination with acutely added 300 nM Ivacaftor; read-out: 3T3 Max Activity

COMPOUND	STUDY_SYSTEM	Emax
Cc1cccc(C)c1-c1cc2nc(n1)NS(=O)(=O)c1cccc(c1)C(=O)N(C)C[C@H](c1ccc(C(C)(C)C)cc1)O2 (single isomer, unassigned)	F508del (Homo sapiens, UniProt P13569, DEL508-508)	> 60%
Cc1cccc(C)c1-c1cc2nc(n1)NS(=O)(=O)c1cccc(c1)C(=O)N(C)C[C@H](c1ccc(C(C)(C)C)cn1)O2 (single isomer, unassigned)	F508del (Homo sapiens, UniProt P13569, DEL508-508)	> 60%
Cc1cccc(C)c1-c1cc2nc(n1)NS(=O)(=O)c1cccc(c1)CN(Cc1cnn(-c3ccccc3)c1C)[C@H](CC(C)C)CO2	F508del (Homo sapiens, UniProt P13569, DEL508-508)	> 60%
